Recorded values, source PubChem BioAssay.

Test: differential killing of epithelial or mesenchymal cells, primary screen, imaging, PC-3E GFP, TEM4-18 mCherry, co-culture (AID 1345086);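 also: cells exposed to compound for 72 h before imaging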
Details: imaging cell counts, measured here: epithelial PC-3E GFP cell survival, at 1 µM
metric: normalised cell number

- molecule: "C[C@@H]1C[C@@H]([C@H](O)CC2CC(=O)NC(=O)C2)C(=O)[C@@H](C)C1"
  metric: "normalised cell number"
  result-value: 0.98
- molecule: "COc1cc2c(cc1OC)-c1c(oc3c4c(ccc3c1=O)OC(C(C)C)C4)CO2 (centres undefined)"
  metric: "normalised cell number"
  result-value: 0.99
- molecule: "CC1=NCCc2c1[nH]c1cc(O)ccc21"
  metric: "normalised cell number"
  result-value: 1.01
- molecule: "COc1ccc2c(c1O)-c1c(OC)c(OC)cc3c1[C@H](C2)N(C)CC3"
  metric: "normalised cell number"
  result-value: 0.99

====

Assay: stimulators of nuclear beta-catenin in C2C12, primary screen, imaging, WNT3A-conditioned medium, mouse C2C12, NPC library (AID 1117326)
Conditions: stimulation, at 2 µM, stronger effect = higher value

- compound: "O=C(O)c1nn(Cc2ccc(Cl)cc2Cl)c2ccccc12"
  nuclear beta-catenin stimulation, %: 4.8
- compound: "O=C1NCN(c2ccccc2)C12CCN(CCCOc1ccc(F)cc1)CC2"
  nuclear beta-catenin stimulation, %: 8.5
- compound: "COP(=S)(OC)SCN1C(=O)c2ccccc2C1=O"
  nuclear beta-catenin stimulation, %: 1.1
- compound: "COC[C@@H](NC(C)=O)C(=O)NCc1ccccc1"
  nuclear beta-catenin stimulation, %: -0.7
- compound: "COP(=S)(OC)Oc1ccc(S(=O)(=O)N(C)C)cc1"
  nuclear beta-catenin stimulation, %: -0.5
- compound: "Oc1c(Br)cc(Br)cc1Br"
  nuclear beta-catenin stimulation, %: -0.3
- compound: "CCOC(=O)NC(C)(C)Cc1ccc(Cl)cc1"
  nuclear beta-catenin stimulation, %: -2.9
- compound: "COP(=S)(OC)Oc1ccc(SC)c(C)c1"
  nuclear beta-catenin stimulation, %: 1.3
- compound: "FC(F)(F)c1cccc(C2=CCN(CCc3ccc4ccccc4c3)CC2)c1"
  nuclear beta-catenin stimulation, %: -1.5
- compound: "CC(C)=CC1C(C(=O)OCc2cccc(Oc3ccccc3)c2)C1(C)C (stereo not drawn)"
  nuclear beta-catenin stimulation, %: 2.5
- compound: "CCN(CC)N(O)N=O"
  nuclear beta-catenin stimulation, %: 0.7
- compound: "CCCCCCC(=O)CCCCCC/C=C/C[C@@H](O)[C@H](O)[C@@](N)(CO)C(=O)O"
  nuclear beta-catenin stimulation, %: 1.7
- compound: "CCC(CC)(CNC(=O)CCCO)c1cccc(OC)c1"
  nuclear beta-catenin stimulation, %: -0.7
- compound: "CC[N+]1(CCOC(=O)C(O)(c2ccccc2)c2ccccc2)CCCCC1"
  nuclear beta-catenin stimulation, %: 0.7
- compound: "CC(C)C(Br)C(=O)NC(N)=O (stereo not drawn)"
  nuclear beta-catenin stimulation, %: 1
- compound: "CN[C@@H]1C[C@@H](c2ccc(Cl)c(Cl)c2)c2ccccc21"
  nuclear beta-catenin stimulation, %: 1.4
- compound: "O=P1(NCCCl)OCCCN1CCCl (stereo not drawn)"
  nuclear beta-catenin stimulation, %: 0.8
- compound: "CCNCC(O)c1cccc(O)c1 (stereo not drawn)"
  nuclear beta-catenin stimulation, %: 2.2
- compound: "COc1ccc2c(c1OC)CN1CCc3cc4c(cc3C1C2)OCO4 (stereo not drawn)"
  nuclear beta-catenin stimulation, %: 2.8
- compound: "CCCOC(=O)c1cncn1C(C)c1ccccc1 (stereo not drawn)"
  nuclear beta-catenin stimulation, %: 0.7
- compound: "CC(Cc1ccc(O)cc1)NCC(O)c1cc(O)cc(O)c1 (stereo not drawn)"
  nuclear beta-catenin stimulation, %: -0.9
- compound: "CNC(=O)NC(O)C(Cl)(Cl)Cl (stereo not drawn)"
  nuclear beta-catenin stimulation, %: -0.2
- compound: "NCCC[C@H](N)C(=O)O"
  nuclear beta-catenin stimulation, %: 1.6

====

Experiment: glucagon-like peptide 1 release enhancers, primary assay, NCI-H716 cell line, NPC library (AID 1117341)
Details: NCI-H716 cells, at 10 µM, stronger effect = higher value
metric: GLP1 secretion stimulation (%)

- molecule: "c1ccc2c(c1)Nc1ccccc1S2"
  result-value: -2.4
- molecule: "O=P1(N(CCCl)CCCl)NCCCO1 (stereo not drawn)"
  result-value: 1.6
- molecule: "CN(C)C(=O)Oc1cc(OC(=O)N(C)C)cc(C(O)CNC(C)(C)C)c1 (stereo not drawn)"
  result-value: 12.7
- molecule: "CC(C)(C)NCC(O)c1cc(Cl)c(N)c(Cl)c1 (stereo not drawn)"
  result-value: 0.6
- molecule: "CC(C)NCC(O)c1ccc(N)c(C#N)c1 (stereo not drawn)"
  result-value: 8.5
- molecule: "CC(=O)[C@H]1CC[C@H]2[C@@H]3CC[C@H]4C[C@H](O)CC[C@]4(C)[C@H]3C(=O)C[C@]12C"
  result-value: -1.7
- molecule: "C[N+]1(C)[C@@H]2CC[C@H]1CC(OC(=O)C(CO)c1ccccc1)C2 (stereo partly drawn)"
  result-value: 2.8
- molecule: "CCCCCCCCCCCCNCCNCCNCC(=O)O"
  result-value: 2.6
- molecule: "CC(C)(O)C(Cl)(Cl)Cl"
  result-value: 1.1
- molecule: "O=C(O)CCCCCCNC1c2ccccc2CCc2ccccc21"
  result-value: 0.3
- molecule: "C=CCN1C[C@H](C)N([C@H](c2ccc(C(=O)N(CC)CC)cc2)c2cccc(OC)c2)C[C@H]1C"
  result-value: 5.2
- molecule: "CC(C)(C)NCC(O)c1cc(Cl)c(N)c(C(F)(F)F)c1 (stereo not drawn)"
  result-value: -2.3
- molecule: "CCOC(=O)NC(O)C(Cl)(Cl)Cl (stereo not drawn)"
  result-value: 0.8
- molecule: "Oc1ccc([C@H]2CNCc3c2ccc(O)c3O)cc1O"
  result-value: 23.9
- molecule: "O=C(O)Cc1ccccc1"
  result-value: -0.3
- molecule: "OCCOc1ccccc1"
  result-value: 3.7
- molecule: "CCC(C(N)=O)N1CCCC1=O (stereo not drawn)"
  result-value: 0.6
- molecule: "NCCc1cc(O)c(O)cc1O"
  result-value: -8.1

====

Test: sensitizers of A549 cells to miR-34 induction, primary screen, imaging, A549 dox-inducible miR-34, nuclei and caspase counts (AID 1347080)
Conditions: A549 miR-34 inducible, Hoechst nuclei count, 48 h; stronger effect = lower value
Active and inactive are the calls of the source.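 The calls were made as follows: active = compounds whose cell count with miR-34 switched on is under 0.7 times the count with it off; inactive = the rest.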

- molecule: "CCn1cnc2c(Nc3cccc(Cl)c3)nc(N[C@@H]3CCCC[C@@H]3N)nc21"
  fold change: "0.982 (inactive)"
- molecule: "NC(Cn1oc(=O)[nH]c1=O)C(=O)O (centres undefined)"
  fold change: "0.991 (inactive)"
- molecule: "COc1ccc2[nH]c3c(c2c1)CCNC3"
  fold change: "1.02 (inactive)"
- molecule: "CN1C2CCC1CC(OC(c1ccccc1)c1ccccc1N)C2 (centres undefined)"
  fold change: "1 (inactive)"

====

Assay: sensitizers of A549 cells to miR-34 induction, primary screen, imaging, A549 dox-inducible miR-34, nuclei and caspase counts (AID 1347080)
Settings: A549 miR-34 inducible, Hoechst nuclei count, 48 h; measured here: total cells without miR-34 induction
# cell count per record follows
metric: cell count

- mol: "COC1=C[C@@H]2C3=C([C@@H]2C1=O)[C@@H](NC(C)=O)CCc1cc(OC)c(OC)c(OC)c13"
  metric: "cell count"
  result-value: 10900
- mol: "N[C@@H]1C[C@H]1c1ccccc1"
  metric: "cell count"
  result-value: 9680
- mol: "CN1Cc2ccccc2[C@@H]2c3cccc4[nH]cc(c34)C[C@H]21"
  metric: "cell count"
  result-value: 4870
- mol: "Cc1nnc2ccc(-c3cccc(C(F)(F)F)c3)nn12"
  metric: "cell count"
  result-value: 9940
- mol: "CCCCCCC(C)(C)c1cc(OC)c2c(c1)OC(C)(C)[C@@H]1CC=C(C)C[C@@H]21"
  metric: "cell count"
  result-value: 6400
- mol: "CCCN1CC[C@@H]2c3cc(O)ccc3CC[C@@H]21"
  metric: "cell count"
  result-value: 10000
- mol: "CCCC(=O)N[C@H]1CCOC1=O"
  metric: "cell count"
  result-value: 6650
- mol: "CCN(CC)C(=O)c1ccc(C2=CC3(CCNCC3)Oc3cccc(O)c32)cc1"
  metric: "cell count"
  result-value: 8740
- mol: "CCCCCCC(=O)O[C@H]1CC[C@H]2[C@@H]3C=CC4=CC(=O)CC[C@]4(C)[C@H]3CC[C@]12C"
  metric: "cell count"
  result-value: 5970

====

Experiment: viability rescue of complex I mutant cybrids, primary screen, cell-based, galactose medium, ATP luminescence (AID 1645843);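 also: positive z means more ATP and so rescue of galactose-driven cybrid death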
Details: complex I mutant cybrid cells, 72 h, stronger effect = higher value
Label NO if z-score falls below -0.1; label YES in every other case.

- compound: "CC(C)(C)NCC(O)COc1cccc2[nH]c(C#N)cc12 (stereo not given)"
  category-label: "YES"
- compound: "C[C@]12Cc3cn[nH]c3C[C@@H]1CC[C@@H]1[C@@H]2CC[C@@]2(C)[C@H]1CC[C@]2(C)O"
  category-label: "NO"
- compound: "C[C@]12CCC(O)CC1=CCC1C2CC[C@]2(C)C(=O)CCC12 (stereo not given in full)"
  category-label: "NO"
- compound: "CN1CCC[C@@H]1Cc1c[nH]c2ccc(Nc3ncccc3[N+](=O)[O-])cc12"
  category-label: "NO"
- compound: "C[C@H]1O[C@H](OC2[C@@H](O)[C@@H](O)C(O)[C@H](O)[C@H]2O)[C@@H](N)C[C@@H]1N=C(N)C(=O)O (stereo not given in full)"
  category-label: "YES"
- compound: "Cc1ccc2c(c1)C1(CCN(CCc3nc(-c4ccccc4)oc3C)CC1)OC(=O)N2"
  category-label: "NO"
- compound: "FC(F)(F)c1cccc(C2=CCN(CCc3ccc4ccccc4c3)CC2)c1"
  category-label: "NO"
- compound: "CC(CCCC(C)(C)O)CCNC(C)Cc1ccsc1 (stereo not given)"
  category-label: "NO"
- compound: "O=c1cccc2n1CC1CNC[C@H]2C1"
  category-label: "YES"
- compound: "Oc1ccc2c3c1O[C@H]1c4oc5ccccc5c4C[C@@]4(O)C(C2)N(CC2CC2)CC[C@]314"
  category-label: "NO"
- compound: "COc1ccc(-n2nc(C(F)(F)F)cc2-c2ccc(Cl)cc2)cc1"
  category-label: "NO"
- compound: "CC1=C(O)C(=O)[C@@H]2O[C@@H]2C1=O"
  category-label: "YES"
- compound: "CN(C)C(=O)Oc1cc(OC(=O)N(C)C)cc(C(O)CNC(C)(C)C)c1 (stereo not given)"
  category-label: "YES"
- compound: "CCN1C[C@@]2(COC)C3[C@@H](OC)C4[C@@H]1C3([C@@H]1C[C@@]3(O)[C@H](OC(=O)c5ccccc5)[C@@H]1[C@]4(OC(C)=O)[C@@H](O)[C@@H]3OC)[C@H](OC)C[C@H]2O"
  category-label: "YES"
- compound: "c1cc(Cc2cnc[nH]2)ccn1"
  category-label: "NO"
- compound: "COc1ccccc1N1CCNCC1"
  category-label: "YES"
- compound: "c1ccc(C2CNCc3ccccc32)cc1 (stereo not given)"
  category-label: "NO"
- compound: "COc1ccc(CN2CCN(C)C(CCO)C2)c(OC)c1OC (stereo not given)"
  category-label: "NO"
- compound: "CCc1cccc(CC)c1NC1=NCCN1"
  category-label: "YES"
- compound: "CCCN(CCC)[C@H]1CCc2c(F)ccc(O)c2C1"
  category-label: "NO"
- compound: "Cc1ccc2c(c1)Cc1c(C(=O)NC3CCCCC3)nn(-c3ccc(Cl)cc3Cl)c1-2"
  category-label: "YES"
- compound: "CCCCc1ccc(C(=O)O)nc1"
  category-label: "YES"
- compound: "NC(=O)OCCCc1ccccc1"
  category-label: "YES"
- compound: "NCCc1c[nH]c2ccccc12"
  category-label: "YES"
- compound: "CN1CCc2cccc(Cl)c2CC1"
  category-label: "YES"
- compound: "CC(N)C(=O)OC(C)(C)Cc1ccc(Cl)cc1 (stereo not given)"
  category-label: "NO"
- compound: "COc1cccc2ncn(Cc3cn4ccccc4n3)c(=O)c12"
  category-label: "NO"
- compound: "C=CCN1C[C@@H](C)N([C@H](c2ccc(C(=O)N(CC)CC)cc2)c2cccc(OC)c2)C[C@@H]1C"
  category-label: "NO"
- compound: "NNC(N)=O"
  category-label: "YES"
- compound: "c1ccc2nc(N3CCNCC3)ccc2c1"
  category-label: "NO"
- compound: "CN1CCN(C(=O)O[C@H]2c3nccnc3C(=O)N2c2ccc(Cl)cn2)CC1"
  category-label: "YES"
- compound: "NCCc1ccc(S(N)(=O)=O)cc1"
  category-label: "YES"
- compound: "C[C@H](N)Cn1ccc2cc(F)c(Cl)cc21"
  category-label: "NO"
- compound: "CC1CCCC(O)CCCCCc2cc(O)cc(O)c2C(=O)O1 (stereo not given)"
  category-label: "YES"
- compound: "O=C(O)Cc1ccccc1"
  category-label: "YES"
- compound: "CCC(COC(=O)c1cc(OC)c(OC)c(OC)c1)(c1ccccc1)N(C)C (stereo not given)"
  category-label: "NO"
- compound: "NC(CCCCCP(=O)(O)O)C(=O)O (stereo not given)"
  category-label: "YES"
- compound: "COC(=O)CN1CN(c2ccccc2)C2(CCN(Cc3ccc4ccccc4c3)CC2)C1=O"
  category-label: "YES"
- compound: "CN1C[C@@H](NS(=O)(=O)N(C)C)C[C@@H]2c3cccc4c3c(cn4C)C[C@H]21"
  category-label: "YES"
- compound: "CN(C(=O)Cc1ccccc1)C(CN1CCCC1)c1ccccc1 (stereo not given)"
  category-label: "YES"
